Target: mGPDH (Rattus norvegicus, UniProt P35571)
Construct: from tissue; host or cells: skeletal muscle mitochondria
Sequence (P35571 43-727): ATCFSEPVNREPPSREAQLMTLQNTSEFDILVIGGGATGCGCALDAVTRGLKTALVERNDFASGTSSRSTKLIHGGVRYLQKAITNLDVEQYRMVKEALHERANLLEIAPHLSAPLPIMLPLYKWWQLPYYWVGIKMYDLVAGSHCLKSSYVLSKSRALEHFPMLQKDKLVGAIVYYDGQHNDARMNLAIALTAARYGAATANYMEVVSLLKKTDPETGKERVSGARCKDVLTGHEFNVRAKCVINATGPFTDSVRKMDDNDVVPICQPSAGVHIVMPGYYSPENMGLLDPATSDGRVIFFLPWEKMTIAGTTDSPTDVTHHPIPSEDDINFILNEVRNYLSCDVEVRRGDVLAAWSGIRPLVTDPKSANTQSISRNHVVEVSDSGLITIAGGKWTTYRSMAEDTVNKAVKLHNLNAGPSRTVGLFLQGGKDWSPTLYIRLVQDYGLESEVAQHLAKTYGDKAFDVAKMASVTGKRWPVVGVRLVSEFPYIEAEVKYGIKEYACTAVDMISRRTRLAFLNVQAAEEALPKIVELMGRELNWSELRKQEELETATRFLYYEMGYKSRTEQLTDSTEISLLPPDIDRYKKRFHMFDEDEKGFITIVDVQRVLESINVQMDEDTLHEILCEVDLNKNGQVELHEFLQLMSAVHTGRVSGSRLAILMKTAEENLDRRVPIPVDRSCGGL
Assay: mGPDH enzymatic activity (DCPIP-linked reduction by glycerol phosphate) in frozen-thawed skeletal muscle mitochondria
Type: biochemical
Conditions: co-varying glycerol phosphate and inhibitor; read-out: K ic (competitive inhibitor dissociation constant)
Measured Quantity: Ki (nM)
One number for each entry, in nM.

The reported Ki of the molecule `O=C(O)CCC(=O)Nc1ccc(-c2nc3cc4ccccc4cc3[nH]2)cc1` was 700

###

System: ubiquinone-binding site of complex I (site IQ)
Assay: Site-specific H2O2 production from site IQ in skeletal muscle mitochondria;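 note: H2O2 from superoxide detected by Amplex UltraRed fluorescence with added superoxide dismutase and horseradish peroxidase, endpoint read 30–40 min after substrate addition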
Format: biochemical, rat
Conditions: 80 μM; 5 mM succinate
Field: IQ H2O2 production with 5 mM Suc (% change at 80 μM). Provide a value for each of the compounds that follow.
Record the result as a number with its unit.

Worked cases, IQ H2O2 production with 5 mM Suc (% change at 80 μM) given:
1) CCCCCCNC(=O)CCC(=O)O = -1%
2) O=C(O)CCC(=O)Nc1ccc(-c2nc3ccccc3[nH]2)cc1 = -9%
3) O=C(O)CCC(=O)Nc1ccc(-c2nc3cc4ccccc4cc3[nH]2)cc1 = -9%

The record that follows has no IQ H2O2 production with 5 mM Suc (% change at 80 μM) shown yet.
Per the record, `Cc1ccc2[nH]c(-c3ccc(NC(=O)CCC(=O)O)cc3)nc2c1` has IQ H2O2 production with 5 mM Suc (% change at 80 μM) of -20%

The reported numbers originate from paper PMC3933693.
